Listed below: MIC values for each entry.
test system: Staph. aur. 133
ASSAY_ENDPOINT: MIC

O=C(O)c1cn(C2CC2)c2c(Cl)c(-n3ccnc3)c(F)cc2c1=O	0.03 µg/mL
O=C(O)c1cn(C2CC2)c2c(F)c(-n3ccnc3)c(F)cc2c1=O	0.125 µg/mL
CCn1cc(C(=O)O)c(=O)c2cc(F)c(-n3ccnc3)c(F)c21 [EP 115 049, reference compound]	1 µg/mL
O=C(O)c1cn(C2CC2)c2cc(-n3cccc3)c(F)cc2c1=O	0.03 µg/mL
O=C(O)c1cn(C2CC2)c2c(F)c(-n3cccc3)c(F)cc2c1=O	0.06 µg/mL

###

test system: Streptococcus faec.27101
Listed below: MIC values for each entry.
ASSAY_ENDPOINT: MIC (µg/mL)

O=C(O)c1cn(C2CC2)c2c(F)c(-n3ccnc3)c(F)cc2c1=O	0.5
O=C(O)c1cn(C2CC2)c2c(F)c(-n3cccc3)c(F)cc2c1=O	0.25
O=C(O)c1cn(C2CC2)c2cc(-n3cccc3)c(F)cc2c1=O	0.25
O=C(O)c1cn(C2CC2)c2c(Cl)c(-n3ccnc3)c(F)cc2c1=O	0.125
CCn1cc(C(=O)O)c(=O)c2cc(F)c(-n3ccnc3)c(F)c21 [EP 115 049, reference compound]	2

###

Consider compounds characterized by their MIC with E.coli Neum..
ASSAY_ENDPOINT: MIC (µg/mL)

O=C(O)c1cn(C2CC2)c2c(F)c(-n3cccc3)c(F)cc2c1=O	0.25
O=C(O)c1cn(C2CC2)c2c(F)c(-n3ccnc3)c(F)cc2c1=O	0.03
O=C(O)c1cn(C2CC2)c2c(Cl)c(-n3ccnc3)c(F)cc2c1=O	0.03
O=C(O)c1cn(C2CC2)c2cc(-n3cccc3)c(F)cc2c1=O	0.06
CCn1cc(C(=O)O)c(=O)c2cc(F)c(-n3ccnc3)c(F)c21 [EP 115 049, reference compound]	0.125

###

Listed below: MIC values for each entry.
system: Proteus vulg. 1017
ASSAY_ENDPOINT: MIC (mg/L)

O=C(O)c1cn(C2CC2)c2c(F)c(-n3cccc3)c(F)cc2c1=O	0.5
O=C(O)c1cn(C2CC2)c2c(Cl)c(-n3ccnc3)c(F)cc2c1=O	0.25
O=C(O)c1cn(C2CC2)c2cc(-n3cccc3)c(F)cc2c1=O	0.25
CCn1cc(C(=O)O)c(=O)c2cc(F)c(-n3ccnc3)c(F)c21 [EP 115 049, reference compound]	0.5
O=C(O)c1cn(C2CC2)c2c(F)c(-n3ccnc3)c(F)cc2c1=O	0.125

###

Consider compounds characterized by their MIC with Staph. aur. 1756.
ASSAY_ENDPOINT: MIC (µg/mL)

O=C(O)c1cn(C2CC2)c2c(F)c(-n3cccc3)c(F)cc2c1=O [Beispiel 2]	0.06
O=C(O)c1cn(C2CC2)c2cc(-n3cccc3)c(F)cc2c1=O [Beispiel 1]	0.03
O=C(O)c1cn(C2CC2)c2c(F)c(-n3ccnc3)c(F)cc2c1=O [Beispiel 21]	0.125
CCn1cc(C(=O)O)c(=O)c2cc(F)c(-n3ccnc3)c(F)c21 [EP 115 049, reference compound]	1
O=C(O)c1cn(C2CC2)c2c(Cl)c(-n3ccnc3)c(F)cc2c1=O [Beispiel 20]	0.03

Origin of the recorded values: patent EP0203488A2
